Test system: PCSK9 gene
TEST_SUMMARY: PCSK9 gRNA/SpCas9 editing in primary human hepatocytes (Tables 2, 4)
Type: cell-based
CONDITION_LABEL: 2500 ng/RNA/mL; SpCas9 mRNA MS002 1:1 by weight
In the oligonucleotide strings, read from the 5' end, every base follows the letter of its sugar. An asterisk marks phosphorothioate; unmarked linkages are phosphodiester. Other units and linkages are bracketed, terminal groups are in braces. A string of capitals states the bases alone. m = 2'-O-methyl; r = 2'-OH (RNA)
Readings of Human Primary Hepatocyte Editing % 2500 for the listed molecules
Please give a number only; it is taken to be in %.

{"columns": ["MOLECULE", "Human Primary Hepatocyte Editing % 2500, %"],
 "data": [
  ["GA210: PCSK9 gRNA; protospacer CTGCGCGTGCTCAACTGCCA (SEQ ID NO: 204) (nucleic acid, sugars from the 5' end m3 r94 m3, linkages s3 o93 s3 (s phosphorothioate, o phosphodiester), T or U not given here) guide: CUGCGCGUGCUCAACUGCCAGUUUUAGAGCUAGAAAUAGCAAGUUAAAAUAAGGCUAGUCCGUUAUCAACUUGAAAAAGUGGCACCGAGUCGGUGCUUUU", 14.3],
  ["GA170: PCSK9 gRNA; protospacer CCAGGACCGCCTGGAGCTGA (SEQ ID NO: 164) (nucleic acid, sugars from the 5' end m3 r94 m3, linkages s3 o93 s3 (s phosphorothioate, o phosphodiester), T or U not given here) guide: CCAGGACCGCCUGGAGCUGAGUUUUAGAGCUAGAAAUAGCAAGUUAAAAUAAGGCUAGUCCGUUAUCAACUUGAAAAAGUGGCACCGAGUCGGUGCUUUU", 31.35],
  ["GA216: PCSK9 gRNA; protospacer CCGGGATGCCGGCGTGGCCA (SEQ ID NO: 210) (nucleic acid, sugars from the 5' end m3 r94 m3, linkages s3 o93 s3 (s phosphorothioate, o phosphodiester), T or U not given here) guide: CCGGGAUGCCGGCGUGGCCAGUUUUAGAGCUAGAAAUAGCAAGUUAAAAUAAGGCUAGUCCGUUAUCAACUUGAAAAAGUGGCACCGAGUCGGUGCUUUU", 14.65],
  ["GA161: PCSK9 gRNA; protospacer GGACGAGGACGGCGACTACG (SEQ ID NO: 155) (nucleic acid) guide: mG*mG*mA*rCrGrArGrGrArCrGrGrCrGrArCrUrArCrGrGrUrUrUrUrArGrArGrCrUrArGrArArArUrArGrCrArArGrUrUrArArArArUrArArGrGrCrUrArGrUrCrCrGrUrUrArUrCrArArCrUrUrGrArArArArArGrUrGrGrCrArCrCrGrArGrUrCrGrGrUrGrCrU*mU*mU*mU", 35.08],
  ["GA240: PCSK9 gRNA; protospacer TGCCAGCGCCTGGCGAGGGC (SEQ ID NO: 233) (nucleic acid, sugars from the 5' end m3 r94 m3, linkages s3 o93 s3 (s phosphorothioate, o phosphodiester), T or U not given here) guide: UGCCAGCGCCUGGCGAGGGCGUUUUAGAGCUAGAAAUAGCAAGUUAAAAUAAGGCUAGUCCGUUAUCAACUUGAAAAAGUGGCACCGAGUCGGUGCUUUU", 7.94]
]}

Continue with the next molecule.
# get_value(readout='Human Primary Hepatocyte Editing % 2500', item= GA211: PCSK9 gRNA; protospacer TGCGCGTGCTCAACTGCCAA (SEQ ID NO: 205) (nucleic acid, sugars from the 5' end m3 r94 m3, linkages s3 o93 s3 (s phosphorothioate, o phosphodiester), T or U not given here) guide: UGCGCGUGCUCAACUGCCAAGUUUUAGAGCUAGAAAUAGCAAGUUAAAAUAAGGCUAGUCCGUUAUCAACUUGAAAAAGUGGCACCGAGUCGGUGCUUUU )
38.07
